Taken from PubChem BioAssay AID504332.

tested target: Histone-lysine N-methyltransferase EHMT2 (Homo sapiens)
assay explanation: qHTS Assay for Inhibitors of Histone Lysine Methyltransferase G9a; further: nearly all actives have a fitted effect of over 75% in size; on activity, negative = inhibition: on the % scale 0 is the no-effect control and ±100 the full control effect
measurement parameters: G9a H3K9 monomethylation, AlphaScreen, 2 h; series mostly up to 59 µM
Screen size: about 350,000 compounds; about 31,000 (8.9%) were called active. Roughly 15% stayed inconclusive and do not appear here. This is one part of a sample in which actives are shown more often than they occur.
quantity kind: activity, negative = inhibition

Some molecules with recorded activity, negative = inhibition:
| molecule | activity, negative = inhibition |
| --- | --- |
| CCOc1ccc(CN2CCN(Cc3c[nH]c4ccccc34)CC2)cc1 | 25.4% [at 2.33 µM] (inactive) |
| CCOC(=O)[C@H]1[C@H]2COc3ccc(C)cc3[C@@H]2N2C(=O)CN(Cc3ccc(F)cc3)C(=O)[C@@]12C | 9.53% [at 0.501 µM] (inactive) |
| NC(=O)c1ccsc1NC(=O)COC(=O)COc1ccc(C=O)cc1 | -1.54% [at 12.7 µM] (inactive) |
| COc1ccc(OCCCC(=O)Nc2cccc(S(=O)(=O)N3CCCCCC3)c2)cc1 | -48.2% [at 12.7 µM] (inactive) |

Would you kindly look at the next entry?
Q: Any idea what activity, negative = inhibition was measured for CCOC(=O)C1=C(COC(=O)[C@H](C)NS(=O)(=O)c2ccccc2F)NC(=O)NC1C (stereo not given in full) ?
Ans: 20.6% [at 2.33 µM] (inactive)

###

tested target: Histone-lysine N-methyltransferase EHMT2 (Homo sapiens)
assay explanation: qHTS Assay for Inhibitors of Histone Lysine Methyltransferase G9a; further: nearly all actives have a fitted effect of over 75% in size
measurement parameters: G9a H3K9 monomethylation, AlphaScreen, 2 h; series mostly up to 59 µM
In all, about 350,000 compounds went through this assay and about 31,000 (8.9%) were called active. About 15% were inconclusive and are not listed. Calls come from the whole dose curve; as a rule, active = well fitted inhibition curve with a large enough effect; inconclusive = small, poorly fitted or top-dose-only effect; inactive = no such curve, though single readings can be large or run the other way. What follows is part of a selection rich in actives, with near analogues and random picks from the rest.
// allowed return values: class 1 = active, class 0 = inactive

Example cases with answers are listed next.
| compound | tested target | group label |
| --- | --- | --- |
| O=C(Cc1ccccc1)N1CCN(S(=O)(=O)c2ccc([N+](=O)[O-])cc2)CC1 | Histone-lysine N-methyltransferase EHMT2 (Homo sapiens) | class 0 |
| FC(F)(F)c1cc(Nc2nc3ccccc3c3nncn23)ccc1Cl | Histone-lysine N-methyltransferase EHMT2 (Homo sapiens) | class 0 |
| N#C/C=C1\Sc2ccccc2C(=O)N1CC(=O)N1CCN(S(=O)(=O)c2ccccc2)CC1 | Histone-lysine N-methyltransferase EHMT2 (Homo sapiens) | class 1 |
| Cc1ccc2oc(=O)c3cnn(CC(=O)N4CCN(c5cccc(Cl)c5)CC4)c3c2c1 | Histone-lysine N-methyltransferase EHMT2 (Homo sapiens) | class 0 |
| O=C(CSc1n[nH]c(-c2ccccc2)n1)N1CCCCC1 | Histone-lysine N-methyltransferase EHMT2 (Homo sapiens) | class 0 |
| CC(C)c1ccc(S(=O)(=O)N2CCN(C(=O)CN3C(=O)NC(C)(c4ccccc4)C3=O)CC2)cc1 (stereo not given) | Histone-lysine N-methyltransferase EHMT2 (Homo sapiens) | class 0 |

Q: Kindly provide the recorded test outcome for the following compound: CC(=O)c1c(C)n(-c2ccc(C)cc2)c2ccc(O)cc12
Ans: class 0

Q: Now try CCOC(=O)c1c(C)[nH]c(C)c1S(=O)(=O)N(C)CC(=O)N1CCN(c2ccccc2)CC1 .
Ans: class 0

Q: Now try Cn1c(CCC(=O)Nc2ccccc2F)nnc1SCC(=O)Nc1ccccc1Cl .
Ans: class 0

Q: Now try Cn1c(SCC(=O)c2ccc(F)cc2)nnc1-c1ccccn1 .
Ans: class 0

###

tested target: Histone-lysine N-methyltransferase EHMT2 (Homo sapiens)
assay explanation: qHTS Assay for Inhibitors of Histone Lysine Methyltransferase G9a; further: nearly all actives have a fitted effect of over 75% in size
measurement parameters: G9a H3K9 monomethylation, AlphaScreen, 2 h; series mostly up to 59 µM
Among all 350,000 compounds or so, about 31,000 (8.9%) were called active. Not shown: some 15% with an inconclusive outcome. The call rests on the fitted dose curve; in most records, active means well fitted inhibition curve with a large enough effect; inconclusive means small, poorly fitted or top-dose-only effect; inactive means no such curve, though single readings can be large or run the other way. Only a selection was taken, and actives are over-represented in it overall.
// allowed return values: active, inactive

| compound | group label |
| --- | --- |
| Cc1cc(C2=NNC(=Nc3ccc(S(=O)(=O)N4CCOCC4)cc3)SC2)c(C)n1CC1CCCO1 (stereo not given) | active |
| O=C(Oc1ccccc1C(=S)N1CCCCC1)c1cc([N+](=O)[O-])cc([N+](=O)[O-])c1 | active |
| COc1cc(C(=O)Nc2oc(-c3ccccc3)c(-c3ccccc3)c2C#N)cc(OC)c1OC | inactive |

Q: Kindly provide the recorded test outcome for the following compound: CCc1ccc(C2CC(=O)c3c([nH]c(C(=O)OCc4ccc(C)cc4)c3C)C2)cc1 (stereo not given)
Ans: inactive

Q: Now try COc1c(Cl)cc(C(=O)N(Cc2ccccc2F)C2CCS(=O)(=O)C2)cc1Cl (stereo not given) .
Ans: inactive

###

tested target: Histone-lysine N-methyltransferase EHMT2 (Homo sapiens) (UniProt Q96KQ7)
Sequence (Q96KQ7 913-1193 limits assumed): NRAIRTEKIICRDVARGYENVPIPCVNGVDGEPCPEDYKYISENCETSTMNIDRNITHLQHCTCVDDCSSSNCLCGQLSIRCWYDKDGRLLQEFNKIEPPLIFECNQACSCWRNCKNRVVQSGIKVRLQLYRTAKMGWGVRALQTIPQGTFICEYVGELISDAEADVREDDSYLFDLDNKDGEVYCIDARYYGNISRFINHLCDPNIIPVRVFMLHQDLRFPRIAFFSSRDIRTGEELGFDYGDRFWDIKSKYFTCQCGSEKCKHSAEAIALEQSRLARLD
assay explanation: qHTS Assay for Inhibitors of Histone Lysine Methyltransferase G9a; further: nearly all actives have a fitted effect of over 75% in size; on activity, negative = inhibition: on the % scale 0 is the no-effect control and ±100 the full control effect
measurement parameters: G9a H3K9 monomethylation, AlphaScreen, 2 h; series mostly up to 59 µM
In all, about 350,000 compounds went through this assay and about 31,000 (8.9%) were called active. Another 15% or so got no clear call; they are omitted. This is one part of a sample in which actives are shown more often than they occur.
quantity kind: activity, negative = inhibition

Some compounds with recorded activity, negative = inhibition:
| compound | activity, negative = inhibition |
| --- | --- |
| O=C(Nc1ccc(NC(=O)c2ccc3c(c2)OCO3)cc1)c1cccc(Cl)c1 | 0.511% [at 12.7 µM] (inactive) |
| C=C(C)CNc1cc(S(=O)(=O)N2CCOCC2)ccc1Oc1ccccc1 | 21.5% [at 12.7 µM] (inactive) |
| COc1cccc(C(=O)N2CCC(n3nccc3NC(=O)C3CCOC3)CC2)c1 (stereo not given) | -5.15% [at 0.501 µM] (inactive) |

Give activity, negative = inhibition for each of the items listed below.
1. Cc1cccc(OCCC(=O)OCc2csc(CC(=O)Nc3ccccc3C)n2)c1
2. CC(C)Nc1nnc(SC(C)C(=O)N(C)C2CCCCC2)s1 (stereo not given)
3. c1ccc2cc(CCCc3cc4ccccc4cn3)ncc2c1
4. COc1cccc(NC(=O)CN(C)CC(=O)c2c(N)n(Cc3ccccc3)c(=O)n(C)c2=O)c1
5. COCCn1c(C)cc(C(=O)CSc2nnc(C3CC3)n2C2CC2)c1C
6. COc1ccc(-c2nnc(SC(C)C(=O)NC3CC3)o2)cc1 (stereo not given)
7. C#CCOCCOCCOCCNc1nc(N2CCN(C(=O)CCCCCCCCCCNC(=O)[C@H]([C@@H](C)CC)n3cc(CCCCN=C(N)N)nn3)CC2)nc(N2CCN(C(=O)CCCCCCCCCCNC(=O)[C@H](CO)n3cc(CCCSC)nn3)CC2)n1
8. C[C@H](OC(=O)n1ccnc1)[C@@H]1O[C@@]2(C)CCC[C@@H]1O2

Ans:
["-6.68% [at 12.7 µM] (inactive)", "7.92% [at 0.501 µM] (inactive)", "5.78% [at 0.501 µM] (inactive)", "-2.39% [at 2.33 µM] (inactive)", "-12.5% [at 12.7 µM] (inactive)", "3.83% [at 12.7 µM] (inactive)", "10.6% [at 2.33 µM] (inactive)", "9.09% [at 0.501 µM] (inactive)"]

###

tested target: Histone-lysine N-methyltransferase EHMT2 (Homo sapiens)
assay explanation: qHTS Assay for Inhibitors of Histone Lysine Methyltransferase G9a; further: nearly all actives have a fitted effect of over 75% in size
measurement parameters: G9a H3K9 monomethylation, AlphaScreen, 2 h; series mostly up to 59 µM
Out of some 350,000 compounds screened, about 31,000 (8.9%) were called active. Another 15% or so got no clear call; they are omitted. Calls follow the shape of the dose curve; as a rule, active = well fitted inhibition curve with a large enough effect; inconclusive = small, poorly fitted or top-dose-only effect; inactive = no such curve, though single readings can be large or run the other way. Many of the other results were omitted from the sample, so actives are more common in it than they were.
// allowed return values: active, inactive

| molecule | group label |
| --- | --- |
| CCOC(=O)c1sc(NC(=O)/C=C/c2ccc(C(C)C)cc2)c(C(=O)OCC)c1C | inactive |
| COc1cc(OC)c2c(c1)OC(=O)CC2c1cc(OC)c(OC)c(OC)c1 (stereo unspecified) | inactive |
| Cc1cc(NC(=O)CSc2ncc(C(=O)Nc3ccc(Cl)cc3)c(=O)n2C)no1 | inactive |
| C/C(=N\NC(=O)NC1CCCCC1)c1ccc(OC(F)F)cc1OC(F)F | inactive |
| CS(=O)(=O)c1ccc(-c2nnc(NC(=O)c3ccc4c(c3)OCCO4)o2)cc1 | inactive |

Then this molecule:
Q: Kindly provide the recorded test outcome for the following molecule: CCCN(C(=O)Cn1ncc2c([nH]c3ccc(C)cc32)c1=O)c1ccccc1C
Ans: inactive

###

tested target: Histone-lysine N-methyltransferase EHMT2 (Homo sapiens)
assay explanation: qHTS Assay for Inhibitors of Histone Lysine Methyltransferase G9a; further: nearly all actives have a fitted effect of over 75% in size
measurement parameters: G9a H3K9 monomethylation, AlphaScreen, 2 h; series mostly up to 59 µM
Out of some 350,000 compounds screened, about 31,000 (8.9%) were called active. Not shown: some 15% with an inconclusive outcome. Calls follow the shape of the dose curve; as a rule, active = well fitted inhibition curve with a large enough effect; inconclusive = small, poorly fitted or top-dose-only effect; inactive = no such curve, though single readings can be large or run the other way. The full list was thinned out, with actives kept by preference.
// allowed return values: active, inactive

| compound | tested target | group label |
| --- | --- | --- |
| O=C(Cc1ccccc1)NNC(=O)C1CCN(c2ncccn2)CC1 | Histone-lysine N-methyltransferase EHMT2 (Homo sapiens) | inactive |
| CCOc1ccccc1C(=O)NCc1ccc2c(c1)CCN2C(=O)c1ccc(F)cc1 | Histone-lysine N-methyltransferase EHMT2 (Homo sapiens) | inactive |
| CCOC(=O)c1c(NC(=O)COc2cc(C)ccc2C(C)C)sc(C)c1C | Histone-lysine N-methyltransferase EHMT2 (Homo sapiens) | active |
| COc1ccc(S(=O)(=O)NCc2cccn2Cc2cccc(C)c2)cc1 | Histone-lysine N-methyltransferase EHMT2 (Homo sapiens) | inactive |
| CCc1noc(C)c1C(=O)Nc1nc(-c2ccccc2)cs1 | Histone-lysine N-methyltransferase EHMT2 (Homo sapiens) | inactive |
| CC(C)(C)c1ccc(C(=O)NCC(c2ccc(Cl)cc2)N2CCOCC2)cc1 (stereo unspecified) | Histone-lysine N-methyltransferase EHMT2 (Homo sapiens) | inactive |
| Cc1cc(C)cc(NC(=O)Cc2csc(C)n2)c1 | Histone-lysine N-methyltransferase EHMT2 (Homo sapiens) | inactive |
| CCNC(=O)c1cnn(-c2ccccc2)c1-c1ccccc1 | Histone-lysine N-methyltransferase EHMT2 (Homo sapiens) | inactive |

Q: Kindly provide the recorded test outcome for the following compound: CC1(C)CC(CCC(=O)Nc2ccccc2Cl)C(=O)O1 (stereo unspecified)
Ans: inactive

Q: Now try Cc1cc(C)n(-c2ccc(Cl)c(C(=O)O)n2)n1 .
Ans: inactive

Q: Now try CCOC(=O)c1sc(NC(=O)COc2ncnc3ccccc23)c(C(=O)OCC)c1C .
Ans: inactive
